Where do these numbers come from? They come from patent US20230192890A1.

Measured Target: T1, Ala mutant SEQ ID NO: 28 (human)
T1 sequence (peptide): EANMDDQWMQDEMEIGY
Procedure Details: ELISA, peptide on plate (10 ug/mL)
Quantity Kind: absorbance 490 nm/630 nm (OD)
Give the number; OD is assumed, so skip it.

Example results:
Query: Value lookup for absorbance 490 nm/630 nm; key = G9 (antibody, IgG1, V domains shown) VH: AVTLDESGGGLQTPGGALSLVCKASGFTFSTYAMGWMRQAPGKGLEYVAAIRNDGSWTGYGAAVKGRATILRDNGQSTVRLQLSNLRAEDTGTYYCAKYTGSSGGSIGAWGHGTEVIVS VL: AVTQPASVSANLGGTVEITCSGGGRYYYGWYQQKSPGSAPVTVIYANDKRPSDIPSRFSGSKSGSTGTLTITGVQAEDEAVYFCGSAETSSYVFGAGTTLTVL
Result: 1.96

Query: Another binder: A11 (antibody, IgG1, V domains shown) VH: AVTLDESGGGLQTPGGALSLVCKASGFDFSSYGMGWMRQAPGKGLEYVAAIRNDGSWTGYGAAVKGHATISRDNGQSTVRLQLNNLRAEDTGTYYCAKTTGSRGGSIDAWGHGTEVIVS VL: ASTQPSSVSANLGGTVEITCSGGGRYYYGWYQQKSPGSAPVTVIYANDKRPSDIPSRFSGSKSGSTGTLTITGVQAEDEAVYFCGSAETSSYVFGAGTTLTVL
Result: 2

Note: attention shifts to another entry.
Query: I have this binder here, E9 (antibody, IgG1, V domains shown) VH: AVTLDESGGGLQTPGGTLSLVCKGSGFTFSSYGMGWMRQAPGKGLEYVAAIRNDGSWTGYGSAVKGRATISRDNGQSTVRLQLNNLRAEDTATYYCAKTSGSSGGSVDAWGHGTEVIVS VL: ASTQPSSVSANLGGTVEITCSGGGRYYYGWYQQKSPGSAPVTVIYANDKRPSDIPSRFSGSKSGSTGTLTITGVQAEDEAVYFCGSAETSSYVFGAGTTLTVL , and I need its recorded absorbance 490 nm/630 nm.
Result: 2
